Biological target: STAT3 (Homo sapiens, UniProt P40763)
Sequence (P40763 whole entry): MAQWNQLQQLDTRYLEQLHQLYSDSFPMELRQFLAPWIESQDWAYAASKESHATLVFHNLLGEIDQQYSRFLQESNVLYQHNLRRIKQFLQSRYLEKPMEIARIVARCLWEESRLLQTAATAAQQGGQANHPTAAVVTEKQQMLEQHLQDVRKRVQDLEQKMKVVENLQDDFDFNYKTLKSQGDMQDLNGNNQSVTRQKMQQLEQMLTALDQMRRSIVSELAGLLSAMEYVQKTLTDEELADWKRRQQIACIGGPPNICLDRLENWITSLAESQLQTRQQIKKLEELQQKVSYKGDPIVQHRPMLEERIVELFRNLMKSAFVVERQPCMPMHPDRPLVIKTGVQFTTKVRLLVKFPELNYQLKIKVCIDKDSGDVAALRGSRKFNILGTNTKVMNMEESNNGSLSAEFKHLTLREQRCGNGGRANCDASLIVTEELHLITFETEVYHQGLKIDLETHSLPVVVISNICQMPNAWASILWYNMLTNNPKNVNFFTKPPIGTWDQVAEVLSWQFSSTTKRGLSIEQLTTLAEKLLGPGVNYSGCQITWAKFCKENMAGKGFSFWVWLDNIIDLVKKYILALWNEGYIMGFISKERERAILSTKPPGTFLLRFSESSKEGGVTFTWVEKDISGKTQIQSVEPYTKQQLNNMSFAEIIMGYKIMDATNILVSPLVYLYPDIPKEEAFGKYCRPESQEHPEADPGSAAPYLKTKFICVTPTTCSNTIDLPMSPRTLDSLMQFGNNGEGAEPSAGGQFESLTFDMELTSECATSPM
Test: Quantitation of STAT3 degradation in A549 cells by Western blot
Assay type: cell-based
Design: expressed in transfected cells; host or cells: A549
Settings: read-out: A549 DC50, 24 hours, tested up to 30 μM or 10 μM
For each entry below, report its DC50 value.

Return DC50 (reported value) for this compound: C/C(=C\C(=O)N[C@H]1CCc2cccc3c2N(C1=O)[C@H](C(=O)N[C@@H](CCC(N)=O)[C@@H](C)OCc1ccc(CCCOCCCc2cccc4c2n(C)c(=O)n4C2CCC(=O)NC2=O)cc1)C3)c1ccc(C(F)(F)P(=O)(OCOC(=O)C(C)(C)C)OCOC(=O)C(C)(C)C)cc1 (stereo partly drawn)
> 30 µM

Find the measured DC50 of Cc1ncsc1-c1ccc(CNC(=O)[C@@H]2C[C@@H](O)CN2C(=O)[C@@H](NC(=O)CCCC#Cc2ccc(CO[C@H](C)[C@H](CCC(N)=O)NC(=O)[C@@H]3Cc4cccc5c4N3C(=O)[C@@H](NC(=O)c3cc4cc(C(=O)P(=O)(O)O)ccc4[nH]3)CC5)cc2)C(C)(C)C)cc1 and report it.
< 30 µM

Specify DC50 for C/C(=C\C(=O)N[C@H]1CCc2cccc3c2N(C1=O)[C@H](C(=O)N[C@@H](CCC(N)=O)[C@@H](C)OCc1ccc(CCCCC(=O)N[C@H](C(=O)N2C[C@H](O)C[C@H]2C(=O)NCc2ccc(-c4scnc4C)cc2)C(C)(C)C)cc1)C3)c1ccc(C(F)(F)P(=O)(OCOC(=O)C(C)(C)C)OCOC(=O)C(C)(C)C)cc1 and stop.
< 30 µM
